Assay Procedure: Metabolic stability in human liver microsomes assessed as compound remaining at 20 ug/ml after 1 hr by LC-MS/MS analysis
Format: ADME
Study Conditions: read-out: Stability
Measure Name: remaining at 1 h, 20 ug/ml (%)
Respond with the bare value in %.

Return value of remaining at 1 h, 20 ug/ml for input Cc1c(C)c2c(c(C)c1O)CCC(C)(C(=O)NCCCCCCCCNc1c3c(nc4cc(Cl)ccc14)CCCC3)O2 (stereo unspecified) , no commentary.
85.5

---

Assay Target: Acetylcholinesterase (Homo sapiens, UniProt P22303)
Sequence (P22303 whole entry): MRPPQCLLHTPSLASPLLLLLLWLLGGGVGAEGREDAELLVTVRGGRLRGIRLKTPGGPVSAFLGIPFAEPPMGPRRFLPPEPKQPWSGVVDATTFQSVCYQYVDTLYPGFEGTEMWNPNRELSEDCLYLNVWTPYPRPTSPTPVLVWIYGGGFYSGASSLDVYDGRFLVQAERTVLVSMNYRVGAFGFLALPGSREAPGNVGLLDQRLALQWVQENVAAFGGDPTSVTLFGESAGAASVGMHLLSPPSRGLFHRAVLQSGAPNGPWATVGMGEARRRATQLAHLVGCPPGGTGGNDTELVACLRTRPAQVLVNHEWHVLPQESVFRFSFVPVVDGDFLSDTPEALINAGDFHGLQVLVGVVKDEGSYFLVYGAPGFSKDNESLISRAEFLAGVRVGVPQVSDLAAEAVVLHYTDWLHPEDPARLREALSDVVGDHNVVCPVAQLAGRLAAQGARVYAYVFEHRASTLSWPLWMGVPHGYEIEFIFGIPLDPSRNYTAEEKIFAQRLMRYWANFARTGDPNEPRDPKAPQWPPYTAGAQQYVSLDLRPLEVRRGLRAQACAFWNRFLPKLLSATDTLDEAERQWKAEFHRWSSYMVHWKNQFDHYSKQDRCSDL
Assay Procedure: Competitive inhibition of human recombinant AChE using acetylthiocholine as substrate preincubated for 5 mins followed by substrate addition measured every 2 mins by Lineweaver-Burk plot analysis
Measure Name: Ki
Include the unit right after the number.

Return value of Ki for input Cc1c(C)c2c(c(C)c1O)CCC(C)(C(=O)NCCCCCCCCNc1c3c(nc4cc(Cl)ccc14)CCCC3)O2 (stereo unspecified) , no commentary.
49.5 nM

---

Assay Procedure: Metabolic stability in human liver microsomes assessed as compound remaining at 1 ug/ml after 1 hr by LC-MS/MS analysis
Type: ADME
Study Conditions: read-out: Stability
Measure Name: remaining at 1 h, 1 ug/ml (%)
Respond with the bare value in %.

Return value of remaining at 1 h, 1 ug/ml for input Cc1c(C)c2c(c(C)c1O)CCC(C)(C(=O)NCCCCCCCCNc1c3c(nc4cc(Cl)ccc14)CCCC3)O2 (stereo unspecified) , no commentary.
58.2

---

Observed IC50 for Cholinesterase (Homo sapiens), reported per entry below.
Respond with the bare value in µM.

Sample answers from the record:
{"Compound": "Cc1c(C)c2c(c(C)c1O)CCC(C)(C(=O)NCCCCCCCCNc1c3c(nc4cc(Cl)ccc14)CCCC3)O2 (centres undefined)", "Units Label": "µM", "Result Number": 0.54}
{"Compound": "Cc1c(C)c2c(c(C)c1O)CCC(C)(C(=O)NCCCCNc1c3c(nc4ccccc14)CCCC3)O2 (centres undefined)", "Units Label": "µM", "Result Number": 0.08}
{"Compound": "Cc1c(C)c2c(c(C)c1O)CCC(C)(C(=O)NCCCCCCCNc1c3c(nc4cc(Cl)ccc14)CCCC3)O2 (centres undefined)", "Units Label": "µM", "Result Number": 0.7}

System Cholinesterase (Homo sapiens). Read-out IC50. Item Cc1c(C)c2c(c(C)c1O)CCC(C)(C(=O)NCCNc1c3c(nc4cc(Cl)ccc14)CCCC3)O2 (centres undefined) . Report value.
0.02

System Cholinesterase (Homo sapiens). Read-out IC50. Item COc1ccc2nc3c(c(NCCCCCCCNC(=O)C4(C)CCc5c(C)c(O)c(C)c(C)c5O4)c2c1)CCCC3 (centres undefined) . Report value.
0.7

System Cholinesterase (Homo sapiens). Read-out IC50. Item COc1ccc2nc3c(c(NCCCCCNC(=O)C4(C)CCc5c(C)c(O)c(C)c(C)c5O4)c2c1)CCCC3 (centres undefined) . Report value.
0.4

System Cholinesterase (Homo sapiens). Read-out IC50. Item Cc1c(C)c2c(c(C)c1O)CCC(C)(C(=O)NCCCNc1c3c(nc4cc(Cl)ccc14)CCCC3)O2 (centres undefined) . Report value.
0.77

---

Assay Procedure: in vitro
Study Conditions: human, HepG2 cells
Description: Hepatotoxicity in human HepG2 cells assessed as cell viability after 24 hrs by MTT assay
Reported IC50 at 24 h values are given for each entry in this list.
Respond with the bare value in µM.

{"Molecule": "COc1ccc2nc3c(c(N)c2c1)CCCC3", "Result Number": 11.5}
{"Molecule": "Cc1c(C)c2c(c(C)c1O)CCC(C)(C(=O)NCCCCCNc1c3c(nc4ccccc14)CCCC3)O2 (centres undefined)", "Result Number": 8.7}
{"Molecule": "Cc1c(C)c2c(c(C)c1O)CCC(C)(C(=O)NCCCCCCNc1c3c(nc4cc(Cl)ccc14)CCCC3)O2 (centres undefined)", "Result Number": 0.7}

Return value of IC50 at 24 h for input "Nc1c2c(nc3cc(Cl)ccc13)CCCC2" , no commentary.
7.13

---

Reported IC50 at 24 h values are given for each entry in this list.
Assay Procedure: in vitro
Study Conditions: human, HepG2 cells
Respond with the bare value in µM.

Sample answers from the record:
{"Compound": "COc1ccc2nc3c(c(NCCNC(=O)C4(C)CCc5c(C)c(O)c(C)c(C)c5O4)c2c1)CCCC3 (centres undefined)", "IC50 at 24 h, µM": 4.9}
{"Compound": "Cc1c(C)c2c(c(C)c1O)CCC(C)(C(=O)NCCCNc1c3c(nc4ccccc14)CCCC3)O2 (centres undefined)", "IC50 at 24 h, µM": 13.2}
{"Compound": "Cc1c(C)c2c(c(C)c1O)CCC(C)(C(=O)NCCCCCCNc1c3c(nc4ccccc14)CCCC3)O2 (centres undefined)", "IC50 at 24 h, µM": 2}

As a next step, examine the compound that follows.
Return value of IC50 at 24 h for input COc1ccc2nc3c(c(NCCCCCCCCNC(=O)C4(C)CCc5c(C)c(O)c(C)c(C)c5O4)c2c1)CCCC3 (centres undefined) , no commentary.
0.92

---

Assay Procedure: Metabolic stability in human liver microsomes assessed as compound remaining at 50 ug/ml after 1 hr by LC-MS/MS analysis
Type: ADME
Study Conditions: read-out: Stability
Measure Name: remaining at 1 h, 50 ug/ml (%)
Respond with the bare value in %.

Return value of remaining at 1 h, 50 ug/ml for input Cc1c(C)c2c(c(C)c1O)CCC(C)(C(=O)NCCCCCCCCNc1c3c(nc4cc(Cl)ccc14)CCCC3)O2 (stereo unspecified) , no commentary.
85.4

---

Assay Target: UniProt P22303
Measure Name: IC50 (nM)
Respond with the bare value in nM.

Sample answers from the record:
{"Compound": "Cc1c(C)c2c(c(C)c1O)CCC(C)(C(=O)NCCCCNc1c3c(nc4ccccc14)CCCC3)O2 (centres undefined)", "Result Number": 950}
{"Compound": "COc1ccc2nc3c(c(NCCCNC(=O)C4(C)CCc5c(C)c(O)c(C)c(C)c5O4)c2c1)CCCC3 (centres undefined)", "Result Number": 1540}
{"Compound": "Cc1c(C)c2c(c(C)c1O)CCC(C)(C(=O)NCCCCCCNc1c3c(nc4ccccc14)CCCC3)O2 (centres undefined)", "Result Number": 360}

System UniProt P22303. Read-out IC50. Item Cc1c(C)c2c(c(C)c1O)CCC(C)(C(=O)NCCCNc1c3c(nc4cc(Cl)ccc14)CCCC3)O2 (centres undefined) . Report value.
80

---

Reported EC50 values are given for each entry in this list.
Respond with the bare value in µM.

Sample answers from the record:
{"Compound": "COc1ccc2nc3c(c(NCCNC(=O)C4(C)CCc5c(C)c(O)c(C)c(C)c5O4)c2c1)CCCC3 (centres undefined)", "Result Number": 95.9}
{"Compound": "Cc1c(C)c2c(c(C)c1O)CCC(C)(C(=O)NCCCNc1c3c(nc4ccccc14)CCCC3)O2 (centres undefined)", "Result Number": 51.3}
{"Compound": "COc1ccc2nc3c(c(NCCCCCNC(=O)C4(C)CCc5c(C)c(O)c(C)c(C)c5O4)c2c1)CCCC3 (centres undefined)", "Result Number": 62.7}
{"Compound": "Cc1c(C)c2c(c(C)c1O)CCC(C)(C(=O)NCCNc1c3c(nc4cc(Cl)ccc14)CCCC3)O2 (centres undefined)", "Result Number": 67.8}

Return value of EC50 for input Cc1c(C)c2c(c(C)c1O)CCC(C)(C(=O)NCCCNc1c3c(nc4cc(Cl)ccc14)CCCC3)O2 (centres undefined) , no commentary.
48.8

Return value of EC50 for input Cc1c(C)c2c(c(C)c1O)CCC(C)(C(=O)O)O2 (centres undefined) , no commentary.
16.2

---

System: Liver microsome
Assay Procedure: Retention time of the compound in human liver microsomes by LC-MS/MS analysis
Type: ADME
Measure Name: Retention_time (min)
Respond with the bare value in min.

{"Compound": "CC1=C(C)C(=O)C(CCC(C)(O)C(=O)NC(O)CCCCCCCNc2c3c(nc4cc(Cl)ccc24)CCCC3)=C(C)C1=O (stereo not given)", "Retention_time (min)": 7.1}

Return value of Retention_time for input "O=C(O)CCCCCCCNc1c2c(nc3cc(Cl)ccc13)CCCC2" , no commentary.
6.52

Return value of Retention_time for input Cc1c(C)c2c(c(C)c1O)CCC(C)(C(=O)NCCCCCCCCNc1c3c(nc4cc(Cl)ccc14)CCCC3)O2 (stereo not given) , no commentary.
7.52

Return value of Retention_time for input CC1=C(C)C(=O)C(CCC(C)(O)C(=O)NCCCCCCCCNc2c3c(nc4cc(Cl)ccc24)CCCC3)=C(C)C1=O (stereo not given) , no commentary.
7.35

Return value of Retention_time for input "OCCCCCCCCNc1c2c(nc3cc(Cl)ccc13)CCCC2" , no commentary.
6.56

Reference source for all entries: ChEMBL document CHEMBL3632576
